tested on: NCI-H1650; test: relative viability (nuclei count vs DMSO), 5 days (fraction); higher = more cells survive; conditions: first compound 4 µM
Experimental readout: relative viability

Guide cases for relative viability, answers given:
Compound: COc1cc(N2CCC(C(N)=O)CC2)ccc1Nc1nc(N)c(Cl)c(Nc2ccccc2S(=O)(=O)C(C)C)n1 [HG-5-88-01] + CC(=O)Nc1cccc(-n2c(=O)n(C3CC3)c(=O)c3c(Nc4ccc(I)cc4F)n(C)c(=O)c(C)c32)c1 [Trametinib] (partner 0.02 µM)
Tested target: NCI-H1650
Data value: 0.532
--
Compound: C[C@@H]1CN(CC(=O)Nc2ccc3c(c2)Cc2cccc(-c4cc(=O)cc(N5CCOCC5)o4)c2S3)C[C@H](C)O1 + CCNC(=O)c1noc(-c2cc(C(C)C)c(O)cc2O)c1-c1ccc(CN2CCOCC2)cc1 [Luminespib] (partner 0.01 µM)
Tested target: NCI-H1650
Data value: 0.171

Request: Determine from records and report relative viability for C[C@@H]1CN(CC(=O)Nc2ccc3c(c2)Cc2cccc(-c4cc(=O)cc(N5CCOCC5)o4)c2S3)C[C@H](C)O1 + CS(=O)(=O)CCNCc1ccc(-c2ccc3ncnc(Nc4ccc(OCc5cccc(F)c5)c(Cl)c4)c3c2)o1 [Lapatinib] (partner 2 µM)
Response: 0.588

###

tested on: NCI-H2170; assay: relative viability (nuclei count vs DMSO), 5 days (fraction); higher = more cells survive; conditions: first compound 0.4 µM
Experimental readout: relative viability
Numbers only.

Compound: C[C@@H]1CN(CC(=O)Nc2ccc3c(c2)Cc2cccc(-c4cc(=O)cc(N5CCOCC5)o4)c2S3)C[C@H](C)O1 + N=C(N)NC(=N)NCCc1ccccc1 [Phenformin] (partner 250 µM)
Tested target: NCI-H2170
relative viability: 0.44
//
Compound: C[C@@H]1CN(CC(=O)Nc2ccc3c(c2)Cc2cccc(-c4cc(=O)cc(N5CCOCC5)o4)c2S3)C[C@H](C)O1 + CC1(C)CCC(c2ccc(Cl)cc2)=C(CN2CCN(c3ccc(C(=O)NS(=O)(=O)c4ccc(N[C@H](CCN5CCOCC5)CSc5ccccc5)c(S(=O)(=O)C(F)(F)F)c4)cc3)CC2)C1 [Navitoclax] (partner 0.5 µM)
Tested target: NCI-H2170
relative viability: 0.471

Okay, now this compound:
Request: Tell us which relative viability value is on record for C[C@@H]1CN(CC(=O)Nc2ccc3c(c2)Cc2cccc(-c4cc(=O)cc(N5CCOCC5)o4)c2S3)C[C@H](C)O1 + Cc1nc(Nc2ncc(C(=O)Nc3c(C)cccc3Cl)s2)cc(N2CCN(CCO)CC2)n1 [Dasatinib] (partner 0.075 µM)
Response: 0.711

###

tested on: SK-LU-1; test: relative viability (nuclei count vs DMSO), 5 days (fraction); higher = more cells survive; conditions: first compound 0.4 µM
Experimental readout: relative viability
One number for each entry.

Molecule: COc1cc(N2CCC(C(N)=O)CC2)ccc1Nc1nc(N)c(Cl)c(Nc2ccccc2S(=O)(=O)C(C)C)n1 [HG-5-88-01] + C[C@@H](Oc1cc(-c2cnn(C3CCNCC3)c2)cnc1N)c1c(Cl)ccc(F)c1Cl [Crizotinib] (partner 1 µM)
Tested target: SK-LU-1
Experimental readout: relative viability
Data value: 0.867

Would you mind listing relative viability for each of the following molecules?
1. COc1cc(N2CCC(C(N)=O)CC2)ccc1Nc1nc(N)c(Cl)c(Nc2ccccc2S(=O)(=O)C(C)C)n1 [HG-5-88-01] + COc1cc2c(Oc3ccc(NC(=O)C4(C(=O)Nc5ccc(F)cc5)CC4)cc3F)ccnc2cc1OCCCN1CCOCC1 [Foretinib] (partner 0.25 µM)
2. C[C@@H]1CN(CC(=O)Nc2ccc3c(c2)Cc2cccc(-c4cc(=O)cc(N5CCOCC5)o4)c2S3)C[C@H](C)O1 + Nc1ncn([C@H]2C[C@H](O)[C@@H](CO)O2)c(=O)n1 [Decitabine] (partner 2 µM)
3. C[C@@H]1CN(CC(=O)Nc2ccc3c(c2)Cc2cccc(-c4cc(=O)cc(N5CCOCC5)o4)c2S3)C[C@H](C)O1 + CC(C)C[C@H](NC(=O)[C@H](Cc1ccccc1)NC(=O)c1cnccn1)B(O)O [Bortezomib] (partner 0.002 µM)

Response:
[0.751, 0.646, 1.09]

###

test system: NCI-H23; test: relative viability (nuclei count vs DMSO), 5 days (fraction); higher = more cells survive; conditions: first compound 2.53 µM
Experimental readout: relative viability
One number for each entry.

Compound: CCCCCCCCCCCC1=C(O)C(=O)C=C(O)C1=O [Embelin] + CC(=O)c1c(C)c2cnc(Nc3ccc(N4CCNCC4)cn3)nc2n(C2CCCC2)c1=O [Palbociclib] (partner 0.5 µM)
Experimental readout: relative viability
Data value: 0.533
--
Compound: CCCCCCCCCCCC1=C(O)C(=O)C=C(O)C1=O [Embelin] + Nc1nc2[nH]cc(CCc3ccc(C(=O)N[C@@H](CCC(=O)O)C(=O)O)cc3)c2c(=O)[nH]1 [Pemetrexed] (partner 0.2 µM)
Experimental readout: relative viability
Data value: 0.589
--
Compound: CCCCCCCCCCCC1=C(O)C(=O)C=C(O)C1=O [Embelin] + Cc1nc(NC(=O)N2CCC[C@H]2C(N)=O)sc1-c1ccnc(C(C)(C)C(F)(F)F)c1 [Alpelisib] (partner 2 µM)
Experimental readout: relative viability
Data value: 0.844
--
Compound: CCCCCCCCCCCC1=C(O)C(=O)C=C(O)C1=O [Embelin] + Cc1nc(Nc2ncc(C(=O)Nc3c(C)cccc3Cl)s2)cc(N2CCN(CCO)CC2)n1 [Dasatinib] (partner 0.075 µM)
Experimental readout: relative viability
Data value: 1.08

Here is another compound to look at.
Request: Indicate its recorded relative viability; the compound in question is CCCCCCCCCCCC1=C(O)C(=O)C=C(O)C1=O [Embelin] + N=C(N)NC(=N)NCCc1ccccc1 [Phenformin] (partner 250 µM)
Response: 0.882

###

test system: NCI-H650; test: relative viability (nuclei count vs DMSO), 5 days (fraction); higher = more cells survive; conditions: first compound 0.04 µM
Experimental readout: relative viability
Give bare numbers.

Examples with their reported relative viability follow.
Molecule: C[C@@H]1CN(CC(=O)Nc2ccc3c(c2)Cc2cccc(-c4cc(=O)cc(N5CCOCC5)o4)c2S3)C[C@H](C)O1 + N=C(N)NC(=N)NCCc1ccccc1 [Phenformin] (partner 250 µM)
Tested target: NCI-H650
relative viability: 0.417
--
Molecule: Clc1ccc(Nc2nnc(Cc3ccncc3)c3ccccc23)cc1 [Vatalanib] + CS(=O)(=O)N1CCN(Cc2cc3nc(-c4cccc5[nH]ncc45)nc(N4CCOCC4)c3s2)CC1 [Pictilisib] (partner 1 µM)
Tested target: NCI-H650
relative viability: 0.875
--
Molecule: COc1cc(N2CCC(C(N)=O)CC2)ccc1Nc1nc(N)c(Cl)c(Nc2ccccc2S(=O)(=O)C(C)C)n1 [HG-5-88-01] + N=C(N)NC(=N)NCCc1ccccc1 [Phenformin] (partner 250 µM)
Tested target: NCI-H650
relative viability: 0.429
--
Molecule: C[C@@H]1CN(CC(=O)Nc2ccc3c(c2)Cc2cccc(-c4cc(=O)cc(N5CCOCC5)o4)c2S3)C[C@H](C)O1 + NC(=O)Nc1cc(-c2cccc(F)c2)sc1C(=O)N[C@H]1CCCNC1 [AZD7762] (partner 0.2 µM)
Tested target: NCI-H650
relative viability: 0.981

Could you report relative viability for every entry in the following list?
1. COc1cc(N2CCC(C(N)=O)CC2)ccc1Nc1nc(N)c(Cl)c(Nc2ccccc2S(=O)(=O)C(C)C)n1 [HG-5-88-01] + O=C(c1cc(Cc2n[nH]c(=O)c3ccccc23)ccc1F)N1CCN(C(=O)C2CC2)CC1 [Olaparib] (partner 8 µM)
2. Clc1ccc(Nc2nnc(Cc3ccncc3)c3ccccc23)cc1 [Vatalanib] + NC(=O)Nc1cc(-c2cccc(F)c2)sc1C(=O)N[C@H]1CCCNC1 [AZD7762] (partner 0.2 µM)
3. COc1cc(N2CCC(C(N)=O)CC2)ccc1Nc1nc(N)c(Cl)c(Nc2ccccc2S(=O)(=O)C(C)C)n1 [HG-5-88-01] + CS(=O)(=O)N1CCN(Cc2cc3nc(-c4cccc5[nH]ncc45)nc(N4CCOCC4)c3s2)CC1 [Pictilisib] (partner 1 µM)
4. Clc1ccc(Nc2nnc(Cc3ccncc3)c3ccccc23)cc1 [Vatalanib] + Nc1nc2[nH]cc(CCc3ccc(C(=O)N[C@@H](CCC(=O)O)C(=O)O)cc3)c2c(=O)[nH]1 [Pemetrexed] (partner 0.2 µM)
5. COc1cc(N2CCC(C(N)=O)CC2)ccc1Nc1nc(N)c(Cl)c(Nc2ccccc2S(=O)(=O)C(C)C)n1 [HG-5-88-01] + CCNC(=O)c1noc(-c2cc(C(C)C)c(O)cc2O)c1-c1ccc(CN2CCOCC2)cc1 [Luminespib] (partner 0.01 µM)

Response:
1: 0.423; 2: 1.03; 3: 0.88; 4: 0.931; 5: 0.87
